target: Tsr2 (in the ITC with yeast ESS2) (S. cerevisiae (yeast)) (UniProt Q06672); assay: ITC; VP-ITC; 20–40 µM Tsr2 variant in the cell, 400–800 µM ESS2 peptide in the syringe; 25 °C, 20 mM NaPi pH 7.1, 1 mM DTT, 10 µM EDTA
PROPERTY: Kd (nM)
All answers are understood in nM, so give the number only.

# input What Kd value was documented for this binder, RPRFNRENKVSPADAAKKAL [ESS2 peptide] ?
# output 700
